- Substrate: NC(=O)C1=CN([C@@H]2O[C@H](COP(=O)(O)OP(=O)(O)OC[C@H]3O[C@@H](n4cnc5c(N)ncnc54)[C@H](OP(=O)(O)O)[C@@H]3O)[C@@H](O)[C@H]2O)C=CC1
- test: purified protein
- Assay type: biochemical, Bacillus subtilis
- conditionParameters: 1 mM L-P5C, 20 mM Tris-HCl pH 7.0, 30°C, kcat per monomer

protein | kcat/Km / M⁻¹ s⁻¹
ComER (Bacillus subtilis subsp. subtilis str. 168) (protein, full-length; pMCSG68, N-terminal His6-TEV tag removed; E. coli BL21 Gold; monomer by SAXS) MKIGFIGTGNMGTILIESFIESKAADPSNMTITNRTIEKALHIKNRYNSINVTESLEKLVSENEMIFICVKPLDIYPLLARALPYLRKDHILISITSPVQTEQLEQYVPCQVARVIPSITNRALAGVSLVTFGTSCGESAKAKINELMQHISHPLQIESDITRVASDIVSCGPAFMSYLIQRFIDAAVSETSVSKQDAILMCKEMLVGMGKLLETELYTLPALQEKVCVKGGVTGEGIKALESGVQDMFHRVFQNTHMKYEEDISAVKKQFHV | 75000
